System: LXFL 529 NSCLC
Test description: NCI tumour cell line growth inhibition, 48 h
Parameter TGI: see the listing below.

{"Molecule": "COc1ccc(-c2nc(N)nc(-c3cc(C)ccc3O)c2Cl)cc1", "TGI": "> 100 µM"}
{"Molecule": "O=C(O)c1oc2ccc([N+](=O)[O-])c3c2c1CCC3", "TGI": "> 100 µM"}
{"Molecule": "S=C1OC2C3C4CC5C3C(O1)C1C5C4C21 (stereo unspecified)", "TGI": "> 100 µM"}
{"Molecule": "COc1ccc(/C(Cl)=C(\\C=O)c2ccc(Cl)cc2)cc1", "TGI": "51 µM"}
{"Molecule": "OCC(O)C(OC1OC(CO)C(O)C(O)C1O)c1nn(-c2ccc(F)cc2)c2nc3cc(Cl)c(Cl)cc3cc12 (stereo unspecified)", "TGI": "> 100 µM"}
{"Molecule": "C(=C1/CCCCC([n+]2ccccc2)=N1)/c1ccccc1", "TGI": "> 100 µM"}
{"Molecule": "O=C1C=Cc2noc3cccc1c23", "TGI": "4.9 µM"}
{"Molecule": "C/C(=N\\N=C(N)N)c1sc(-c2nc(C)c(/C(C)=N/N=C(N)N)s2)nc1C", "TGI": "> 100 µM"}
{"Molecule": "N#CCc1nc2c(s1)C(=O)c1ccccc1C2=O", "TGI": "28.2 µM"}
{"Molecule": "CC(=O)Nc1[nH]c(=O)[nH]c(=O)c1N(C(C)=O)C(C)=O", "TGI": "> 100 µM"}
{"Molecule": "CC1Oc2c(c(O)cc3oc(=O)cc(-c4ccccc4)c23)C(=O)C1C (stereo unspecified)", "TGI": "> 100 µM"}

---

Test system: SF-295 CNS
Test description: NCI tumour cell line growth inhibition, 48 h

{"Compound": "Cc1[nH]nc(C(=O)N/N=C/c2cccs2)c1N=NN(C)C", "Readout unit": "µM", "Qual": "=", "TGI": 45.2}
{"Compound": "COc1ccc(N2C(=O)CSC2c2cc(OC)c(OC)c(OC)c2)cc1 (stereo not given)", "Readout unit": "µM", "Qual": "=", "TGI": 71.9}
{"Compound": "C[P+](C)(CC(F)(F)F)c1ccccc1", "Readout unit": "µM", "Qual": ">", "TGI": 100}
{"Compound": "Cc1cc(I)cc(CN(C)CCCCN2CCCC2)c1O", "Readout unit": "µM", "Qual": "=", "TGI": 28.6}
{"Compound": "O=C(Nc1ccc(-c2nc3ccc(NC(=O)c4ccc(Cl)cc4)cc3[nH]2)cc1)c1ccc(Cl)cc1", "Readout unit": "µM", "Qual": "=", "TGI": 8.77}
{"Compound": "Cc1ccc2c(=O)c3c(O)c4c(cc3n(C)c2c1)OC(C)(C)C=C4", "Readout unit": "µM", "Qual": ">", "TGI": 10}
{"Compound": "Clc1cccc(C2SCc3nc4ccccc4n32)c1Cl (stereo not given)", "Readout unit": "µM", "Qual": "=", "TGI": 30.4}
{"Compound": "NC(=O)CN1CCN(c2nc(N3CCCC3)c3nc(Cl)c(NCc4ccccc4)nc3n2)CC1", "Readout unit": "µM", "Qual": "=", "TGI": 16.3}
{"Compound": "Nc1nc(Cl)cc(NCCCCCCCCCCNc2cc(Cl)nc(N)n2)n1", "Readout unit": "µM", "Qual": "=", "TGI": 46.4}
{"Compound": "O=C(O)c1c(Cl)c(Cl)c(Cl)c(Cl)c1-c1c2cc(I)c(=O)c(I)c-2oc2c(I)c(O)c(I)cc12", "Readout unit": "µM", "Qual": "=", "TGI": 78.7}
